TARGET: COX-2 (Homo sapiens, UniProt P35354)
Construct: purchased Cayman 701050
Sequence (P35354 18-604): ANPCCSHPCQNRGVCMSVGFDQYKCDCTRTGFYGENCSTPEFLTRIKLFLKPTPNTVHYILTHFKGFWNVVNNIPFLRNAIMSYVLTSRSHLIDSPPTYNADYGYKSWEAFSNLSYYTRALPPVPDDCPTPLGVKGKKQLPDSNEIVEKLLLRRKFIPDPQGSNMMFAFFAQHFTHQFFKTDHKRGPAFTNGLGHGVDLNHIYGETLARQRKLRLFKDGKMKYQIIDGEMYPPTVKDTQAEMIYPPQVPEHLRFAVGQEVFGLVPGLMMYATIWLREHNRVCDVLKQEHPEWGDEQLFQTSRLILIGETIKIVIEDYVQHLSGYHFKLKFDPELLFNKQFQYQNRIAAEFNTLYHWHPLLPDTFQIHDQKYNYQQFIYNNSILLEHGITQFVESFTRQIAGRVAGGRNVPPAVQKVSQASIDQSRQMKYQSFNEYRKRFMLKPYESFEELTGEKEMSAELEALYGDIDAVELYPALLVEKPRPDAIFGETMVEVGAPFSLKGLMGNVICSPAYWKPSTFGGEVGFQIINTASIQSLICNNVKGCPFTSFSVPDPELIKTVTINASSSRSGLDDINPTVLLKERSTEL
METHOD: Cyclooxygenase inhibition assay (Cayman kit No. 701050, COX peroxidase activity), COX-2
Type: biochemical
SETTINGS: ratio of IC50 values (COX-2/COX-1)
MEASURED_PARAMETER: Ratio: COX-2/COX-1

1. O=C1c2ccccc2C(=O)N1CN1CCN(C(c2ccccc2)c2ccccc2)CC1 [Compound D] :: 1.10
2. O=C(CN1C(=O)c2ccccc2C1=O)N1CCN(c2ccccc2)CC1 [E] :: 0.70
3. O=C1c2ccccc2C(=O)N1CN1CCN(c2cccc(C(F)(F)F)c2)CC1 [Compound C] :: 0.67
4. COc1cccc(N2CCN(C(=O)CN3C(=O)c4ccccc4C3=O)CC2)c1 [Compound H] :: 0.25
5. COc1ccc(N2CCN(C(=O)CN3C(=O)c4ccccc4C3=O)CC2)cc1 [Compound I] :: 0.49
6. O=C(CN1C(=O)c2ccccc2C1=O)N1CCN(c2cccc(C(F)(F)F)c2)CC1 [F] :: 0.28
7. O=C1c2ccccc2C(=O)N1CN1CCN(c2ccccc2)CC1 [A] :: 0.45
